B1: ZNF232 (parent)
chain: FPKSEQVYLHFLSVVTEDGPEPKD

# Variants of: B1
# Experimental details: protein stability index of a GFP-peptide fusion (GPS, HEK-293T) (PSI 1-6); higher = more stable;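 further: lentivirally expressed fusions sorted by FACS into six bins by GFP to DsRed ratio, PSI derived from sequencing read proportions per bin multiplied by bin number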
# Conditions: c terminus: a fixed tail appended
Assay metric: protein stability index
Lab note: record just the number, no unit beside it.

Inquiry: Which protein stability index is reported for this variant? `L12F`
Reply text: 1.73

Inquiry: Which protein stability index is reported for this variant? `V14F`
Reply text: 2.18

Inquiry: Which protein stability index is reported for this variant? `G19I`
Reply text: 1.9

Inquiry: Which protein stability index is reported for this variant? `V14Y`
Reply text: 3.58

Inquiry: Which protein stability index is reported for this variant? `L12P`
Reply text: 2.34

Inquiry: Which protein stability index is reported for this variant? `K23E`
Reply text: 2.13

Inquiry: Which protein stability index is reported for this variant? `L12D`
Reply text: 3.67

Inquiry: Which protein stability index is reported for this variant? `F11E`
Reply text: 4.55

Inquiry: Which protein stability index is reported for this variant? `L9P`
Reply text: 2.58

Inquiry: Which protein stability index is reported for this variant? `K3Q`
Reply text: 2.12

Inquiry: Which protein stability index is reported for this variant? `K23V`
Reply text: 2.14

Inquiry: Which protein stability index is reported for this variant? `D24E`
Reply text: 2.12

Inquiry: Which protein stability index is reported for this variant? `D24G`
Reply text: 3.76

Inquiry: Which protein stability index is reported for this variant? `E17D`
Reply text: 2.62

Inquiry: Which protein stability index is reported for this variant? `Q6Y`
Reply text: 1.47

Inquiry: Which protein stability index is reported for this variant? `P22I`
Reply text: 2

Inquiry: Which protein stability index is reported for this variant? `D18V`
Reply text: 1.23

Inquiry: Which protein stability index is reported for this variant? `Q6M`
Reply text: 1.6

Inquiry: Which protein stability index is reported for this variant? `Q6K`
Reply text: 1.86

Inquiry: Which protein stability index is reported for this variant? `T16C`
Reply text: 2.47

Inquiry: Which protein stability index is reported for this variant? `E5S`
Reply text: 1.7

Inquiry: Which protein stability index is reported for this variant? `L9K`
Reply text: 2.5

Inquiry: Which protein stability index is reported for this variant? `F1Y`
Reply text: 2.01

Inquiry: Which protein stability index is reported for this variant? `S4C`
Reply text: 1.74

Inquiry: Which protein stability index is reported for this variant? `T16V`
Reply text: 1.81

Inquiry: Which protein stability index is reported for this variant? `V7M`
Reply text: 3.74

Inquiry: Which protein stability index is reported for this variant? `E21N`
Reply text: 2.12

Inquiry: Which protein stability index is reported for this variant? `K23I`
Reply text: 2.06

Inquiry: Which protein stability index is reported for this variant? `V7K`
Reply text: 3.21

Inquiry: Which protein stability index is reported for this variant? `V14R`
Reply text: 2.45

Inquiry: Which protein stability index is reported for this variant? `V14I`
Reply text: 3.05

Inquiry: Which protein stability index is reported for this variant? `Q6R`
Reply text: 1.85

Inquiry: Which protein stability index is reported for this variant? `P22A`
Reply text: 1.85

Inquiry: Which protein stability index is reported for this variant? `F1K`
Reply text: 4.44

Inquiry: Which protein stability index is reported for this variant? `S13N`
Reply text: 2.46

Inquiry: Which protein stability index is reported for this variant? `Y8D`
Reply text: 3.55

Inquiry: Which protein stability index is reported for this variant? `F11A`
Reply text: 2.49

Inquiry: Which protein stability index is reported for this variant? `P2D`
Reply text: 3.92

Inquiry: Which protein stability index is reported for this variant? `H10D`
Reply text: 3.04

Inquiry: Which protein stability index is reported for this variant? `L9E`
Reply text: 3.54

Inquiry: Which protein stability index is reported for this variant? `S4L`
Reply text: 1.78

Inquiry: Which protein stability index is reported for this variant? `D24C`
Reply text: 1.36

Inquiry: Which protein stability index is reported for this variant? `S4G`
Reply text: 1.66

Inquiry: Which protein stability index is reported for this variant? `E5K`
Reply text: 3.34

Inquiry: Which protein stability index is reported for this variant? `V14C`
Reply text: 1.92

Inquiry: Which protein stability index is reported for this variant? `T16P`
Reply text: 3.37

Inquiry: Which protein stability index is reported for this variant? `D18Q`
Reply text: 1.77

Inquiry: Which protein stability index is reported for this variant? `E21D`
Reply text: 2.02

Inquiry: Which protein stability index is reported for this variant? `S13A`
Reply text: 1.89

Inquiry: Which protein stability index is reported for this variant? `T16F`
Reply text: 1.63

Inquiry: Which protein stability index is reported for this variant? `P22Y`
Reply text: 1.25

Inquiry: Which protein stability index is reported for this variant? `H10P`
Reply text: 1.94

Inquiry: Which protein stability index is reported for this variant? `Q6S`
Reply text: 1.41

Inquiry: Which protein stability index is reported for this variant? `V15D`
Reply text: 3.45

Inquiry: Which protein stability index is reported for this variant? `L12T`
Reply text: 2.58

Inquiry: Which protein stability index is reported for this variant? `F1M`
Reply text: 4.15

Inquiry: Which protein stability index is reported for this variant? `F1I`
Reply text: 3.73

Inquiry: Which protein stability index is reported for this variant? `Y8A`
Reply text: 2.46

Inquiry: Which protein stability index is reported for this variant? `P2I`
Reply text: 2.72

Inquiry: Which protein stability index is reported for this variant? `Y8H`
Reply text: 2.31

Inquiry: Which protein stability index is reported for this variant? `F11Y`
Reply text: 2.29

Inquiry: Which protein stability index is reported for this variant? `V14H`
Reply text: 2.34

Inquiry: Which protein stability index is reported for this variant? `K3A`
Reply text: 2.85

Inquiry: Which protein stability index is reported for this variant? `F11P`
Reply text: 3.74

Inquiry: Which protein stability index is reported for this variant? `E5Q`
Reply text: 1.9

Inquiry: Which protein stability index is reported for this variant? `Y8I`
Reply text: 2.27

Inquiry: Which protein stability index is reported for this variant? `E21M`
Reply text: 2.04

Inquiry: Which protein stability index is reported for this variant? `T16S`
Reply text: 2.31

Inquiry: Which protein stability index is reported for this variant? `Y8F`
Reply text: 1.88

Inquiry: Which protein stability index is reported for this variant? `K3D`
Reply text: 2.35

Inquiry: Which protein stability index is reported for this variant? `V14W`
Reply text: 1.29

Inquiry: Which protein stability index is reported for this variant? `T16K`
Reply text: 2.77

Inquiry: Which protein stability index is reported for this variant? `V7L`
Reply text: 2.32

Inquiry: Which protein stability index is reported for this variant? `V15Y`
Reply text: 2.43

Inquiry: Which protein stability index is reported for this variant? `K23F`
Reply text: 1.63

Inquiry: Which protein stability index is reported for this variant? `Q6V`
Reply text: 1.21

Inquiry: Which protein stability index is reported for this variant? `L12V`
Reply text: 2.48

Inquiry: Which protein stability index is reported for this variant? `Y8C`
Reply text: 2.49

Inquiry: Which protein stability index is reported for this variant? `E5M`
Reply text: 2.04

Inquiry: Which protein stability index is reported for this variant? `D18K`
Reply text: 1.58

Inquiry: Which protein stability index is reported for this variant? `D24F`
Reply text: 1.99

Inquiry: Which protein stability index is reported for this variant? `S4F`
Reply text: 2.49

Inquiry: Which protein stability index is reported for this variant? `F11D`
Reply text: 3.73

Inquiry: Which protein stability index is reported for this variant? `D24I`
Reply text: 2.14

Inquiry: Which protein stability index is reported for this variant? `S13L`
Reply text: 1.76

Inquiry: Which protein stability index is reported for this variant? `L12Q`
Reply text: 3.99

Inquiry: Which protein stability index is reported for this variant? `V14T`
Reply text: 2.23
